# assay_details: qHTS for Inhibitors of human tyrosyl-DNA phosphodiesterase 1 (TDP1): qHTS in cells in absence of CPT; also: nearly all actives have a fitted effect of over 55% in size
# measurement_context: DT40 Tdp1-/- hTDP1 cells, no CPT, ATP luminescence, 48 h
About 64,000 (15%) of roughly 420,000 compounds were called active. Not shown: some 27% with an inconclusive outcome. Calls follow the shape of the dose curve; as a rule, active = well fitted inhibition curve with a large enough effect; inconclusive = small, poorly fitted or top-dose-only effect; inactive = flat fitted curve, though single readings scatter. Not all results are given here.
The categories you may choose from are 1 = active, 0 = inactive

Qu. I'd appreciate the recorded outcome for `CC(=O)c1c(C)[nH]c(C(=O)OCC(=O)Nc2c(C)n(C)n(-c3ccccc3)c2=O)c1C` from this test.
Ans. 0

Qu. Same lookup for `O=C(CN1C(=O)c2ccccc2C1=O)NCc1ccc(C(=O)O)cc1` , please.
Ans. 0

Qu. Item: `Cc1ccc(CNS(=O)(=O)CCNC(=O)c2ccccc2)cc1`
Ans. 0

Qu. How about `Cc1c(CNC2CCCCC2)c(C(=O)O)c(C)n1Cc1cccc(Cl)c1` ?
Ans. 0

Qu. Let us now turn to `N#Cc1c(NC(=O)CCCl)sc2c1CCCCC2`
Ans. 1

Qu. What do you get for `O=C(COC(=O)c1cccc(Cl)c1)NC1CCCCCCC1` ?
Ans. 0

Qu. Quick one: `C/C(N)=C(\C#N)C(=O)NCCc1ccccn1`
Ans. 0

Qu. Another compound to check: CN(C(=O)c1ccc2c(c1)N(Cc1cccc(Cl)c1)C(=O)c1ccccc1S2=O)C1CCCCC1 (stereo unspecified)
Ans. 1

Qu. Request: `CCOC(=O)c1c(NC(=O)CSc2nnc(C)c(=O)[nH]2)sc2c1CCC2`
Ans. 0

Qu. Also need `CSc1nc(C)nc(C2CC2)c1C#N` , thanks.
Ans. 0

Qu. Would you kindly repeat that for `S=c1[nH]nc(-c2cc(-c3ccsc3)n[nH]2)n1-c1ccccc1` ?
Ans. 0

====

# assay_details: qHTS for Inhibitors of human tyrosyl-DNA phosphodiesterase 1 (TDP1): qHTS in cells in absence of CPT; also: nearly all actives have a fitted effect of over 55% in size
# measurement_context: DT40 Tdp1-/- hTDP1 cells, no CPT, ATP luminescence, 48 h
The whole screen tested about 420,000 compounds, of which about 64,000 (15%) were called active. Not shown: some 27% with an inconclusive outcome. The call rests on the fitted dose curve; in most records, active means well fitted inhibition curve with a large enough effect; inconclusive means small, poorly fitted or top-dose-only effect; inactive means flat fitted curve, though single readings scatter. These entries were drawn from the full list.
Select the matching outcome among true for active, false for inactive

Qu. Write down the call the test reported for this molecule. Item: C=CC(COCc1ccccc1)N(CC(=O)OC)S(=O)(=O)c1cc(Br)ccc1OC (stereo unspecified)
Ans. true

Qu. And `C=C1C=C(C(F)F)n2ncc(C(=O)NCCc3ccccc3OC)c2N1` ?
Ans. true

Qu. Now the molecule `CCN([C@H](CO)C(C)C)S(=O)(=O)c1ccccc1Br`
Ans. false

Qu. Continue with `O=c1oc2cc(O)ccc2cc1-c1ccc(F)cc1`
Ans. true

Qu. Now try `COc1ccc(-c2cc3ccc(OCc4nn[nH]n4)cc3oc2=O)cc1` .
Ans. false

Qu. Same question for `COc1ccccc1CCNC(=O)CN1C(=O)NC2(CCCC2)C1=O` please.
Ans. false

====

# assay_details: qHTS for Inhibitors of human tyrosyl-DNA phosphodiesterase 1 (TDP1): qHTS in cells in absence of CPT; also: nearly all actives have a fitted effect of over 55% in size
# measurement_context: DT40 Tdp1-/- hTDP1 cells, no CPT, ATP luminescence, 48 h
The campaign covered roughly 420,000 compounds. About 64,000 (15%) were called active. Not shown: some 27% with an inconclusive outcome. The call rests on the fitted dose curve; in most records, active means well fitted inhibition curve with a large enough effect; inconclusive means small, poorly fitted or top-dose-only effect; inactive means flat fitted curve, though single readings scatter. Only a sample is shown.
Give your call using only these classes: active, inactive

Qu. Tell me the recorded outcome of this test for `CCOc1cccc(C(=O)Nc2nnc(S(=O)(=O)N(C)c3ccc(C)cc3)s2)c1` .
Ans. active

Qu. Also need COc1cc(C(C(=O)NC2CCCC2)N(C(=O)c2ccco2)c2ccccc2C(C)=O)cc(OC)c1OC (stereo unspecified) , thanks.
Ans. inactive

Qu. What about this compound? CCC1CN(CCNC(=O)c2ccsc2)Cc2cc(OC)ccc2O1 (stereo unspecified)
Ans. inactive

Qu. Another: `CCOc1ccc(S(=O)(=O)Nc2ccncc2)c(C)c1C`
Ans. inactive

Qu. Here is the next compound: CCOc1ccc(CN(Cc2ccco2)C(c2cccs2)c2nnnn2C(C)(C)C)cc1 (stereo unspecified)
Ans. active

Qu. Now the same for `O=C(CSc1ccc([N+](=O)[O-])cn1)Nc1ccc(N2CCOCC2)cc1`
Ans. inactive

Qu. Here is the next compound: COc1ccc(N2CCC(N3CCN(C)C(CCO)C3)CC2)cc1 (stereo unspecified)
Ans. inactive

Qu. Entry COc1cccc(N2C(=O)CC(N3CCN(S(=O)(=O)c4ccccc4)CC3)C2=O)c1 (stereo unspecified) please
Ans. inactive

Qu. Check `CCC(=O)Nc1nnc(S(=O)(=O)N(CC(C)C)c2ccccc2)s1` too.
Ans. inactive

Qu. And `C[C@H](O)[C@@H]1C(=O)N2CCc3ccc(N4CCOCC4)cc3[C@@H]2C[C@@H]1N(C)C(=O)C(C)(C)C` ?
Ans. inactive

Qu. Can you check O=C(Nc1ccc(S(=O)(=O)NCC2CCCO2)cc1)c1ccc(F)cc1 (stereo unspecified) next?
Ans. active

Qu. Can you check `CCCc1nnc(NC(=O)CN2C(=O)c3ccccc3S2(=O)=O)s1` next?
Ans. inactive

Qu. Also need `NC(=O)C1CCN(C(=O)c2ccc(F)c(S(=O)(=O)N3CCOCC3)c2)CC1` , thanks.
Ans. inactive

Qu. For O=S(=O)(NCC1CCCO1)c1ccc2ccccc2c1 (stereo unspecified) then?
Ans. inactive

Qu. Proceed to CC(C)(C)n1nnnc1C(c1ccccc1F)N1CCN(C(=O)c2ccco2)CC1 (stereo unspecified)
Ans. inactive

Qu. Try the compound `CN(CC(=O)NC1CCCCC1)S(=O)(=O)c1cccc2cccnc12`
Ans. inactive

Qu. Next compound up: `CCCCCCCCCCCCCCCCO`
Ans. inactive

Qu. Record: `CCCCC(=O)Nc1nnc(S(=O)(=O)N(C)Cc2ccco2)s1`
Ans. inactive

Qu. Try the compound `COc1ccc(-c2ccc3c(c2)[C@@H]2C[C@H](N(C)S(=O)(=O)c4ccccc4)[C@H]([C@H](C)O)C(=O)N2CC3)cc1`
Ans. active

Qu. // next record `CCCn1c(N)c(C(=O)CSc2nnc3n2CCCCC3)c(=O)[nH]c1=O`
Ans. inactive

Qu. Proceed to `O=C1C(c2[nH]c3ccccc3c2O)=Nc2ccccc21`
Ans. inactive
